Listing of entries alongside the reported GI50.
- tgt: Ba/F3 De119/T790M/C797S EGFR triple mutant cell line (Homo sapiens, UniProt P00533, T790M/C797S, cells depend on it, form not given)
- Sequence (P00533 with tags, fused parts or gaps DEL746-750/T790M/C797S, form open): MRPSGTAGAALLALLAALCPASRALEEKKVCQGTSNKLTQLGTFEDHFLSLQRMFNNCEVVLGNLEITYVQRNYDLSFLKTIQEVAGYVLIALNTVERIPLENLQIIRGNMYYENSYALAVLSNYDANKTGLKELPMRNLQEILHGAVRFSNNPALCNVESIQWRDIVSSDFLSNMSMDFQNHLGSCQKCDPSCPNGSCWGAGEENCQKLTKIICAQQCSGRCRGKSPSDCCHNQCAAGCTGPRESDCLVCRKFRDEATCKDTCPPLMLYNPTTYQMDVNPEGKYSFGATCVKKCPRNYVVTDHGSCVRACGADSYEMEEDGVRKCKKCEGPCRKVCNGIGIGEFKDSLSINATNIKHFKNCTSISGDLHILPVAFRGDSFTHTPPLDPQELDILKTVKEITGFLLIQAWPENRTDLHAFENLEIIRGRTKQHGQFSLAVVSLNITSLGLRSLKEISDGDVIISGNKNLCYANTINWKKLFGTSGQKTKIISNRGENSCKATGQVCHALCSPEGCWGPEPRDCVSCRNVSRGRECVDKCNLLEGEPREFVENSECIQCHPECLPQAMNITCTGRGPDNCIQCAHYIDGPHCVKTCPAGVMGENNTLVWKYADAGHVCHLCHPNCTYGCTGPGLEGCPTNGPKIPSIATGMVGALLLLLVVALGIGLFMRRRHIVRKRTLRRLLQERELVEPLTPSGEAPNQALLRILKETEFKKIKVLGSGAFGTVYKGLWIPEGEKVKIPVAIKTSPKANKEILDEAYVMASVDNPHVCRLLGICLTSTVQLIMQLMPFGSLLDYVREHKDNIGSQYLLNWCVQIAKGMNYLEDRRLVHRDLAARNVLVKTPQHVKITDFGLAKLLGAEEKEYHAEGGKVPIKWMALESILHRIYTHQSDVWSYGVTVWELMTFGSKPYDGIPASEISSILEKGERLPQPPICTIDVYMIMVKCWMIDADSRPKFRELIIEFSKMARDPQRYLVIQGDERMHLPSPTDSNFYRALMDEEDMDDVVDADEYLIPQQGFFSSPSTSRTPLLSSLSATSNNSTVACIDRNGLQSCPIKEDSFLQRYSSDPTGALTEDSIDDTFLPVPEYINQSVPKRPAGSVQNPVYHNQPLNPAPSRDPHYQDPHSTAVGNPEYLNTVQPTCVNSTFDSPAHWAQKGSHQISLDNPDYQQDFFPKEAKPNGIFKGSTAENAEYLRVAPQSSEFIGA
- assay summary: Cell proliferation inhibition experiment (CellTiter-Glo), Ba/F3 De119/T790M/C797S
- Format: cell-based
- particulars: Ba/F3 Del19/T790M/C797S EGFR triple mutant cells, 72 hours, Cell Titer-Glo; read-out: Ba/F3 (Del19/T790M/C797S) IC50
Please reply with the bare figure in nM and do not write the unit itself.

Q: Could you share which GI50 value was measured for `CCOc1nc(N2CCOCC2)c(-c2cnn(C)c2)cc1Nc1ncc(Br)c(Nc2ccc3nccnc3c2P(C)(C)=O)n1` ?
Ans: 2.63

Q: So what does the record say about GI50 for `COc1nc(N2CCOCC2)c(-c2cnn(C)c2)cc1Nc1ncc(Br)c(Nc2ccc3nccnc3c2P(C)(C)=O)n1` ?
Ans: 4.43

====

Measured GI50, listed per entry.
- tgt: Ba/F3 De119/T790M/C797S EGFR triple mutant cell line (Homo sapiens, UniProt P00533, T790M/C797S, cells depend on it, form not given)
- assay summary: Cell proliferation inhibition experiment (CellTiter-Glo), Ba/F3 De119/T790M/C797S
- Assay type: cell-based
- particulars: Ba/F3 Del19/T790M/C797S EGFR triple mutant cells, 72 hours, Cell Titer-Glo; read-out: Ba/F3 (Del19/T790M/C797S) IC50
I only need the number, in nM, no unit after it.

Answered cases to consult:
CCc1cnc(Nc2cc(-c3cnn(C)c3)c(N3CCOCC3)cc2OC)nc1Nc1ccc2nccnc2c1P(C)(C)=O : 4.58
COc1cc(N2CCOCC2)c(-c2cnn(C)c2)cc1Nc1ncc(C#N)c(Nc2ccc3nccnc3c2P(C)(C)=O)n1 : 43.4
Cn1cc(-c2cc(Nc3ncc(Br)c(Nc4ccc5nccnc5c4P(C)(C)=O)n3)ccc2N2CCOCC2)cn1 : 3.02
COc1cc(N2CCC3(CC2)COC3)c(-c2cnn(C)c2)cc1Nc1ncc(Br)c(Nc2ccc3nccnc3c2P(C)(C)=O)n1 : 4.62
COc1cc(N2CCOCC2)c(-c2cnn(C)c2)c(F)c1Nc1ncc(Br)c(Nc2ccc3nccnc3c2P(C)(C)=O)n1 : 73.6
COc1ncc(-c2cnn(C)c2)cc1Nc1ncc(Br)c(Nc2ccc3nccnc3c2P(C)(C)=O)n1 : 12.1
COc1cc(N2CCN(CC3(C#N)CC3)CC2)c(-c2cnn(C)c2)cc1Nc1ncc(Br)c(Nc2ccc3nccnc3c2P(C)(C)=O)n1 : 1.26
COc1cc(N2CCC(N3CCN(C)CC3)CC2)c(-c2cscn2)cc1Nc1ncc(Br)c(Nc2ccc3nccnc3c2P(C)(C)=O)n1 : 11
COc1cc(N2CCC(N3CCC(F)CC3)CC2)c(-c2cnn(C)c2)cc1Nc1ncc(Br)c(Nc2ccc3nccnc3c2P(C)(C)=O)n1 : 4.13
COc1cc(N2CCOC(C)C2)c(-c2cnn(C)c2)cc1Nc1ncc(Br)c(Nc2ccc3nccnc3c2P(C)(C)=O)n1 (centres unmarked) : 1.02

Q: I would be grateful if you could share the reported GI50 for COCC1CCCN(c2cc(OC)c(Nc3ncc(Br)c(Nc4ccc5nccnc5c4P(C)(C)=O)n3)cc2-c2cnn(C)c2)C1 (centres unmarked) .
Ans: 6.2

Q: # get_value(readout='GI50', item= `COc1cc(N2CCO[C@@H](C)C2)c(-c2cnn(C)c2)cc1Nc1ncc(Br)c(Nc2ccc3nccnc3c2P(C)(C)=O)n1` )
Ans: 1.8

Q: Quick one: GI50 for `COc1cc(N2CCOCC2)c(-c2cnn(C)c2)cc1Nc1ncc(Br)c(Nc2cc(C)c3nccnc3c2P(C)(C)=O)n1` ?
Ans: 10.1

Q: For the molecule shown here, COc1cc(N2CCC(N3CCN(C)CC3)C(F)C2)c(-c2cnn(C)c2)cc1Nc1ncc(Br)c(Nc2ccccc2N(C)S(=O)(=O)C2CC2)n1 (centres unmarked) , give the reported GI50.
Ans: 14.3
